Hello, the source for this data is ChEMBL document CHEMBL4813945, in case you need it.

test system: RAW264.7; assay: Antiinflammatory activity against mouse RAW264.7 cells assessed as inhibition of LPS-induced NO production at 10 uM preincubated for 1 hrs followed by LPS stimulation and measured after 24 hrs by Griess assay relative to control; assay type: functional; conditions: time 25 hrs
Exercise: state measured inhibition at 10 µM for each of the molecules provided.
Numbers only, in %.

Can you give me inhibition at 10 µM for all of these, one by one?
1. CN1CCN(c2nc(/C=C/c3ccco3)nc3ccsc23)CC1
2. COc1cc(/C=C/c2nccc(NC(C)C)n2)cc(OC)c1OC
3. COc1cc(/C=C/c2nc(NCCc3ccccc3)c3sccc3n2)cc(OC)c1OC
4. CCCc1nn(C)c2c(NCCc3cccc(Cl)c3)nc(CCc3cccnc3)nc12
5. COc1cc(/C=C/c2nc(N(C)c3ccccc3)c3sccc3n2)cc(OC)c1OC
6. CN1CCN(c2nc(/C=C/c3ccccc3)nc3ccsc23)CC1

[43.9, 61, 46.2, 37.5, 32.5, 18.5]
